target: Type-1 angiotensin II receptor (Homo sapiens) (UniProt P30556); assay: NVS_GPCR_hAT1: NovaScreen (NVS) G Protein-Coupled Receptor Assay for human Angiotensin II receptor type 1 (AT1) (AID 2283263)
Sequence (P30556 whole entry, looked up): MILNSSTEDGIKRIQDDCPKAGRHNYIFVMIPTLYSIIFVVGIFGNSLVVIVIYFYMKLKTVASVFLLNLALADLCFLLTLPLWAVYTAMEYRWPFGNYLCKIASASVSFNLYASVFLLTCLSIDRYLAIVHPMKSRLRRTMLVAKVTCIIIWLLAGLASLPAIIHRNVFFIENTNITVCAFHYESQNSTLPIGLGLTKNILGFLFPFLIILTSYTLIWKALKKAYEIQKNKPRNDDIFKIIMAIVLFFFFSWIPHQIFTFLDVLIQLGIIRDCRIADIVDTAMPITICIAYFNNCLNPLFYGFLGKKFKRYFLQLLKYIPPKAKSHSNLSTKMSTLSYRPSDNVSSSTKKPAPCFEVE
Inconclusive results are not listed. Active and inactive are the calls of the source. How the source made its calls: active means hit-call score of the fitted dose curve at least 0.9, where 1 is the maximum; inconclusive means response in the unintended direction; inactive means score below 0.9.
Please reply with one of these outcomes: Yes = active, No = inactive

Check out these entries, answers already filled in.
{"columns": ["molecule", "class label"],
 "data": [
  ["N#CSCSC#N", "Yes"],
  ["CCOP(=S)(OCC)Oc1cc(C)nc(C(C)C)n1", "No"],
  ["CCOP(=O)(OCC)Oc1cc(C)nc(C(C)C)n1", "No"]
]}

Exercise: Any idea what this test logged for `COc1cc(OC)nc(Sc2cccc(Cl)c2C(=O)O)n1` ?
Key: No

Exercise: Any idea what this test logged for `CCCOc1nn(C(=O)NS(=O)(=O)c2ccccc2C(=O)OC)c(=O)n1C` ?
Key: No

Exercise: Any idea what this test logged for `CC[C@H](C)[C@H]1O[C@]2(C=C[C@@H]1C)C[C@@H]1C[C@@H](C/C=C(\C)[C@@H](O[C@H]3C[C@H](OC)[C@@H](O[C@H]4C[C@H](OC)[C@@H](NC)[C@H](C)O4)[C@H](C)O3)[C@@H](C)/C=C/C=C3\CO[C@@H]4[C@H](O)C(C)=C[C@@H](C(=O)O1)[C@]34O)O2` ?
Key: Yes

Exercise: Any idea what this test logged for CCCSP(=O)(OCC)Oc1ccc(Br)cc1Cl (configuration not stated) ?
Key: No
